Molecular target: T1, Recombinant mouse MMR (R&D systems) (mouse, UniProt Q61830 20-1388)
T1 construct: Antigen of the PE-ELISA and the SPR; also called mMMR; recombinant mMMR
T1 sequence: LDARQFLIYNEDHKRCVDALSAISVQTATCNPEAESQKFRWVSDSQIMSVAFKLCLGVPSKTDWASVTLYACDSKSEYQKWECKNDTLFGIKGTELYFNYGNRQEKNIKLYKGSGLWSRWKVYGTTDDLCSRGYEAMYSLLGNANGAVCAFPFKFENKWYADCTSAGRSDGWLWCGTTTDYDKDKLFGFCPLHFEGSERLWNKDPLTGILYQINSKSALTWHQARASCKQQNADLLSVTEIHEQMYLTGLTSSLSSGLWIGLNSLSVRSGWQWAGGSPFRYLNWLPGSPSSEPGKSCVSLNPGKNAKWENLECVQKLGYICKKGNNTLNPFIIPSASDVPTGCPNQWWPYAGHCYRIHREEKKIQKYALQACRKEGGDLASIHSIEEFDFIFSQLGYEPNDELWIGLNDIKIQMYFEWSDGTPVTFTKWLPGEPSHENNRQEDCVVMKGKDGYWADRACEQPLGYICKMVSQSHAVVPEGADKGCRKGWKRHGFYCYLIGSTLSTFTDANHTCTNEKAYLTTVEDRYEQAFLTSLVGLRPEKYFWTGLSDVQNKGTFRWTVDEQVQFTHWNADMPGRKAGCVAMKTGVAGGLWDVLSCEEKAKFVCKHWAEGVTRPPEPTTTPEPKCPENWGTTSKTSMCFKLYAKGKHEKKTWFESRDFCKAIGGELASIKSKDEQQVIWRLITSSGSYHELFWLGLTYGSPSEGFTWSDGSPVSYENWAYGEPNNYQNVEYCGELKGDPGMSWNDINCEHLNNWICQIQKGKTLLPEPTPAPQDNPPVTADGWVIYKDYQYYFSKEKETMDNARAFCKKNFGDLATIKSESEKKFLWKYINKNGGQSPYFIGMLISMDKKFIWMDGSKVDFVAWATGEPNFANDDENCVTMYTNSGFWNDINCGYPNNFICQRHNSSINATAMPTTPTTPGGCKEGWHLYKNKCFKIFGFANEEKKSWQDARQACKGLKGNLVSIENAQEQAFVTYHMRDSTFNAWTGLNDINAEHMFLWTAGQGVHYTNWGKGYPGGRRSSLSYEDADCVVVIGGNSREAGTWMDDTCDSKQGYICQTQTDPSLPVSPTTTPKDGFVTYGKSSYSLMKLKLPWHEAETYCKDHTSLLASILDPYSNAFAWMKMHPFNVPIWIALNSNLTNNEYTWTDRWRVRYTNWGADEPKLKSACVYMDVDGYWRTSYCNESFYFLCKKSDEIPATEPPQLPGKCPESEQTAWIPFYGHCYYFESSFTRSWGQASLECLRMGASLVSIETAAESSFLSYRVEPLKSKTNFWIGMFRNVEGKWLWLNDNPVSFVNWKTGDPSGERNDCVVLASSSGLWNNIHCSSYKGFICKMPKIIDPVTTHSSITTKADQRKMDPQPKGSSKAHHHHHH
Test: SPR, BIAcore T100; mouse MMR on CM5 chip, sdAb as analyte
Result type: kon (M⁻¹ s⁻¹)
Give a bare numeral; the unit M⁻¹ s⁻¹ is implied.

Exam item: What value of kon has been recorded for this entry: NbhMMRm15.43 (VHH, Produced from pMECS with C-terminal HA and 6xHis tag) VHH: QVQLQESGGTLVQPGGSLRLSCAASGSTFSINNMGWYRQAPGKQRELVAGITGGNTHYADSVKGRFTISRDNAKNTMYLQMNGLKPEDTAVYYCNANWGAYWGQGTQVTVSS
Marked response: 29000

Exam item: // query: NbhMMRm10.19 (VHH, Produced from pMECS with C-terminal HA and 6xHis tag) VHH: QVQLQESGGGLVQPGGSLKLSCAASGSIFSIKTMGWYRQAPGKQRELVAAITSGGSTNYADSVKGRFTISRDNAKNTVYLQMNSLKPEDTAVYYCNADGVVAWDQPYDNYWGQGTQVTVSS
Marked response: 840000

Exam item: // query: NbhmMMRm20.52 (VHH, Produced from pMECS with C-terminal HA and 6xHis tag) VHH: QVQLQESGGGLVQAGGSLRLSCAASGRIFSAYAMGWFRQAPGKEREFVAAISRSGDSTDYADSVKGRFTISRDSAKNMVYLQMNSLKPEDTALYHCAARTVSAPPSAAWGYGYWGQGTQVTVSS
Marked response: 1.6e+06
